src = patent US9061994B1

# Lookup of reported viability at 10 µM keyed by entry
- Tested on: U251 glioblastoma cells
- ASSAY_PROCEDURE: Trypan blue dye-exclusion viability assay
- Type: cell-based, human
- MEASUREMENT_SETUP: Homo sapiens, U-251, 48 h, each compound at 10 μM for 2 days, mean ± SD of three cultures
Use % as the unit, but write only the number.

Past entries and their recorded results:
| MOLECULE | MEASUREMENT |
| --- | --- |
| COc1ccc2[nH]cc(/C=C/C(=O)c3ccncc3)c2c1 | 91.2 |
| CCc1[nH]c2ccc(OC)cc2c1/C=C/C(=O)c1ccncc1 [compound 107a] | 34.6 |
| COc1ccc2[nH]c(CC(C)C)c(/C=C/C(=O)c3ccncc3)c2c1 [107d] | 87.4 |
| COc1ccc2[nH]c(C)c(/C=C/C(=O)c3cccnc3)c2c1 | 96.2 |
| CCCc1[nH]c2ccc(OC)cc2c1/C=C/C(=O)c1ccncc1 [107b] | 83.9 |

# evaluate next
Specify viability at 10 µM for COc1ccc2[nH]c(C(C)C)c(/C=C/C(=O)c3ccncc3)c2c1 [107c] and stop.
78.8

---

- System: U251 glioblastoma cells
- ASSAY_PROCEDURE: Sulforhodamine B (SRB) growth inhibition assay
- Type: cell-based, human
- MEASUREMENT_SETUP: Homo sapiens, U-251, 48 h; read-out: GI50
- Protocol: Cells experiencing methuosis initially undergo extreme cytoplasmic vacuolization which can be readily assessed by phase contrast microscopy. As viability is compromised (usually between 24-48 h), the cells detach from the culture surface and lose membrane integrity. […] Total protein in adherent cells was measured by the sulforhodamine B (SRB) colorimetric assay, following standard procedures for anticancer drug screening used by the U.S. National Cancer Institute. […]
MEASURED_PROPERTY: GI50 (µM)
Use µM as the unit, but write only the number.

Past entries and their recorded results:
| COMPOUND | UNIT_OF_MEASURE | GI50 |
| --- | --- | --- |
| CCc1[nH]c2ccc(OC)cc2c1/C=C/C(=O)c1ccncc1 [compound 107a] | µM | 3.2 |
| COc1ccc2[nH]cc(/C=C/C(=O)c3ccncc3)c2c1 [compound 13] | µM | 18.6 |
| COc1ccc2[nH]c(CC(C)C)c(/C=C/C(=O)c3ccncc3)c2c1 [107d] | µM | 16.6 |
| CCCc1[nH]c2ccc(OC)cc2c1/C=C/C(=O)c1ccncc1 [107b] | µM | 15.3 |

Specify GI50 for COc1ccc2[nH]c(C)c(/C=C/C(=O)c3cccnc3)c2c1 [meta-MOMIPP] and stop.
16.9
